Tested on: SF-295
Experiment: NCI tumour cell line growth inhibition, 48 h
The source made the active and inactive calls. No stated cut-off is given here; in the data, active = GI50 up to about 1.1 µM and inactive = higher.
reported.endpoint: GI50

Exercise: // GI50 lookup, key: CCCCCCCCP(=O)(O)OP(=O)(O)OCC1OC(n2ccc(N)nc2=O)C(O)C1O (stereo not given)
Key: > 100 µM (inactive)

Exercise: Note, next up: COP(=O)(OC)C(O)/C=C/c1ccco1 (stereo not given)
Key: > 100 µM (inactive)

Exercise: Now the same for CCOC(=O)N1CCN(c2c(C)nc(C)nc2O)CC1
Key: > 100 µM (inactive)

Exercise: Please do the same for Oc1ccc2ccccc2c1/C=C/c1ccc2c(Br)cc(Br)c(O)c2n1 as well.
Key: 4.32 µM (inactive)

Exercise: Also, OC1OC(c2ccco2)C(F)(F)C(F)(F)C1(F)F (stereo not given) please.
Key: 68.7 µM (inactive)
